Origin of values: ChEMBL document CHEMBL3301472

Assay info: MMV: MTT Cytotoxicity Assay Day 7 pi of Assay #7 (compound washed out Day 1 pi), U87-CD4-CXCR4 cells, % cell death @ 5mM compound
Format: toxicity, cell-based
Assay setup: human, u87-cd4-cxcr4, 5000 µM
Hi, to clarify the labels: TRUE covers % Cell Death from 20 upward, FALSE covers anything below 20.

Please check the record "O=C(Nc1ccccc1O)c1ccc(-c2ccc(Cl)cc2Cl)o1" and state if its % Cell Death is at or above 20. TRUE

###

Assay info: MMV: MTT Cytotoxicity Assay Day 3 pi, U87-CD4-CXCR4 cells, % cell death @ 5mM compound
Type: toxicity, cell-based
Assay setup: human, u87-cd4-cxcr4, 5000 µM
Metric name: % Cell Death
Format: numeric value only, no unit, no commentary.

Return % Cell Death for the following compound: CC(O)(c1ccc(Cl)cc1)C(CN1CCCCC1)c1ccccc1.Cl (configuration not stated) 3

Return % Cell Death for the following compound: "Clc1ccc2c(N3CCCC3)ccnc2c1" 21

Return % Cell Death for the following compound: Cc1c(C)n(CC(O)CNC2CCCCC2C)c2ccccc12 (configuration not stated) 18
